biological target: HLA-B*27:05; experiment: IEDB peptide-MHC binding, purified MHC/direct/fluorescence; filed as Kd, often an IC50 or EC50 that approximates it; bounds were set here for any values at or beyond the usual limits of such assays; details: source organism: Yersinia pestis Nepal516
property: Kd

**Query** Form field: reported Kd of QQSEARRML
**Result** ≥ 20 µM

---

biological target: HLA-A*29:02; test: IEDB peptide-MHC binding, purified MHC/direct/fluorescence; filed as Kd, often an IC50 or EC50 that approximates it; bounds were set here for any values at or beyond the usual limits of such assays; details: source organism: Mycobacterium tuberculosis variant bovis
property: Kd

**Query** Form field: reported Kd of HQAIISDVL
**Result** ≥ 20 µM

Taken from the Immune Epitope Database (IEDB).
